- TESTED SYSTEM: T1, Programmed cell death protein 1 (PD-1), human (human, UniProt Q15116 25-167, limits assumed)
- T1 construct: also called full-length PD-1
- T1 sequence (Q15116 25-167 limits assumed): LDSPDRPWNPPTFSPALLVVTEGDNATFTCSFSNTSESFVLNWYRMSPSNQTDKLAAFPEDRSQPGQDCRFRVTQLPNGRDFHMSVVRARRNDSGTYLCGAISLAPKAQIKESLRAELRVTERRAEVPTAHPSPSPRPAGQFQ
- TEST NAME: SPR affinity, column 'Affinity (nM)' of the drawn table
pKd: −log10 of the molar value.
This section presents binders with their documented pKd values.
METRIC: pKd

BINDER	NUMERIC READOUT
1-H01-1 (antibody, V domains shown, From the in vitro scFv library of immunised mice; also called clone 1-H01-1) VH: QVQLQQPGAELVKPGASVKMSCKASGYTFTSYWMHWVKQRPGQGLEWIGVIDPSNSYTIYNQKFKGKATLTVDTSSSTAYMQLSSLTSEDSAVYYCARSPFDYWGQGTTLTVSS VL: DVVMTQSQKFMSTSVGDRVSVTCKASQNVGTNVAWYQQKPGQSPKALIYSASYRYSGVPDRFTGSGSGTDFTLTIRNVQSEDLAEYFCQQHNSYPFTFGGGTKLEIK	7.11
1-F09-1 (antibody, V domains shown, From the in vitro scFv library of immunised mice) VH: QVQLQQPGAEVVMPGASVKLSCKASGYTFTSYWMHWVKQRPGQGLEWIGVIDPSDSYTQYNQKFKGKATLTVDTSSSTAYMQLSSLTSEDSAVYYCARSPFDYWGQGTTLTVSS VL: DIQMNQSHKFMSTSVGDRVSITCKASQDVSTAVAWYQQKPGQSPKALIYSASNRYSGVPDRFIGSGSGTDFTLTIRNVQSEDLAEYFCQQHNSYPFTFGGGTKLEMK	7.89
